target or test system: T1, GPPAAAPGHPLAPGPHPAAPSSWGPRPRRYK-biotin (full length of the outer loop) (human, biotin coupled to the C-terminus (K-biotin))
T1 construct: Printed over two rows (r36 and r37; again r54 and r55); also called LAG-3 Extra cyclic peptide
T1 peptide: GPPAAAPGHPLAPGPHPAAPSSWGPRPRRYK
experiment summary: peptide scanning ELISA, biotin peptide on streptavidin
assay metric: binding result

| binder | result |
| --- | --- |
| 405B8H3 (mouse antibody purified from hybridoma) (antibody, V domains shown, also called mAb103-405B8H3; 405B81-13) VH: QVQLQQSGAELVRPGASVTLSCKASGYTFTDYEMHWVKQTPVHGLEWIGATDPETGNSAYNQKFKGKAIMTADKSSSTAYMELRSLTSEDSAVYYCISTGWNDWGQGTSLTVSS VL: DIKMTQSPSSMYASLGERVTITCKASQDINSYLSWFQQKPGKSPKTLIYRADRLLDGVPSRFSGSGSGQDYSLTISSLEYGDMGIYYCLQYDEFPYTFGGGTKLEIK | binds |
| 409D4E10 (mouse antibody purified from hybridoma) (antibody, V domains shown, also called mAb112-409D4E10) VH: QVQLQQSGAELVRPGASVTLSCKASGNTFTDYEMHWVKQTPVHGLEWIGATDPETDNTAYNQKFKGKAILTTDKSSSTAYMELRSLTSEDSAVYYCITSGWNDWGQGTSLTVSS VL: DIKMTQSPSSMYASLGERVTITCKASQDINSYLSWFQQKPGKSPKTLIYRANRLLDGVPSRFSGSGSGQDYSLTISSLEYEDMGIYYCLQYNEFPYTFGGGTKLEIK | binds |
| 105F1E10 (mouse antibody purified from hybridoma) (antibody, V domains shown, also called mAb009-105F1E10) VH: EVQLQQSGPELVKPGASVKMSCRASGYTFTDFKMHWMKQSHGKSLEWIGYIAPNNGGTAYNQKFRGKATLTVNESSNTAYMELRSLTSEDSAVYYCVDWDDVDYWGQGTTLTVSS VL: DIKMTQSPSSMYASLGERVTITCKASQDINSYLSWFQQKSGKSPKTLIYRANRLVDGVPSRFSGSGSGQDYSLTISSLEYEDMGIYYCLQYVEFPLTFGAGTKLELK | binds |
| 409B11E12 (mouse antibody purified from hybridoma) (antibody, V domains shown, also called mAb104-409B11E12) VH: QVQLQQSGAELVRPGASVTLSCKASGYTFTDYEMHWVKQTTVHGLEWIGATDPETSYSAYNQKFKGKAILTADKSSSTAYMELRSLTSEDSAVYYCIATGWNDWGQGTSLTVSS VL: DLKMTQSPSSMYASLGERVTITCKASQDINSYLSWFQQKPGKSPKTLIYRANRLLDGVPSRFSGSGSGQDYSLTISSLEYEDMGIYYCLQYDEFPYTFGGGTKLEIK | binds |
